assayed system: CCR1 (Homo sapiens, UniProt P32246)
Construct: host or cells: non-adherent cells
Sequence (P32246 1-355): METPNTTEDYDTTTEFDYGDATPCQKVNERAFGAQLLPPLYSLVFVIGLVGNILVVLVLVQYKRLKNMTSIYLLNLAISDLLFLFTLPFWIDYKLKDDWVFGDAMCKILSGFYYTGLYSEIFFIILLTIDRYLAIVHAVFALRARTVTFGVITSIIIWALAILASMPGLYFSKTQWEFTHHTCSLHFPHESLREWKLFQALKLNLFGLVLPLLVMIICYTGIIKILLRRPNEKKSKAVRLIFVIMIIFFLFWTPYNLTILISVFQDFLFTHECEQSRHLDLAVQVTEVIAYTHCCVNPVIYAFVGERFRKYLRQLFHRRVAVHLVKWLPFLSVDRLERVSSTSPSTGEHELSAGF
protocol summary: functional cellular assay measuring calcium flux in response to MIP1α in CCR1-transfected cells (Method A or Method B)
Assay type: cell-based
stated conditions: cells stably expressing recombinant CCR1 and G-alpha-16; MIP-1alpha added at EC80; method (A: FLIPR TETRA, B: FDSS6000) not stated per compound
measured endpoint: IC50 (nM)

Previously resolved entries follow.
compound: CC[C@H](NC(=O)c1cnn(-c2ccc(Cl)c(Cl)c2)c1C)c1cccc(Br)c1
units label: nM
IC50: 16
--
compound: CCC[C@H](NC(=O)c1cnn(-c2ccc(Cl)cc2)c1CN)c1cccc(C(F)(F)F)c1
units label: nM
IC50: 12
--
compound: CC[C@H](NC(=O)c1cnn(-c2ccc(Cl)cc2)c1C)c1ccc(F)c(C(F)(F)F)c1
units label: nM
IC50: 13
--
compound: CCCC(NC(=O)c1cnn(-c2ccc(Cl)cc2)c1C)c1ccc(S(=O)(=O)N(C)C)nc1 (stereo not drawn)
units label: nM
IC50: 12

I = CCCC(NC(=O)c1cnn(-c2ccc(Br)cc2)c1C)c1cncc(S(C)(=O)=O)c1 (stereo not drawn)
II = CCC[C@H](NC(=O)c1cnn(-c2ccc(Cl)cc2)c1CO)c1cccc(Br)c1
Select one. Lower IC50: I or II Your answer should be the label attached to the chosen record. I
(I: 9.3 nM, II: 16 nM)

Just for reference, patent US8293917B2 is where these values come from.
